target.or.test.system: MOF-KAT8 (Homo sapiens, UniProt Q9H7Z6)
Sequence (Q9H7Z6 177-447): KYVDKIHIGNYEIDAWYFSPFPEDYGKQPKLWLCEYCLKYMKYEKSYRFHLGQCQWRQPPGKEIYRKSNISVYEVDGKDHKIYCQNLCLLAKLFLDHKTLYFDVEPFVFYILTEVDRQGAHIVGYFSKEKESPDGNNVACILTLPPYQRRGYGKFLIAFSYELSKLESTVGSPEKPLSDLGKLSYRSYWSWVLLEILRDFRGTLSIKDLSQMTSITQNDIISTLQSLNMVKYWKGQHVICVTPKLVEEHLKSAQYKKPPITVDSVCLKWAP
assay.summary: Revised Acetyltransferase Biochemical Assay, KAT8
pIC50: −log10 of the molar value.
Would you mind telling me the reported pIC50 of each entry?

Which value of pIC50 has been reported for O=C(NCC(c1ccccc1)c1ncco1)C1=Nc2cccnc2S(=O)(=O)N1 (stereo not drawn) [Example 96] in the records?
< 3.90

Which value of pIC50 has been reported for COCC(CNC(=O)C1=Nc2ccc(Cl)cc2S(=O)(=O)N1)c1ccccc1 (stereo not drawn) [Example 226] in the records?
< 3.90

Which value of pIC50 has been reported for O=C(NCC(CO)c1ccccc1)C1=Nc2ccccc2S(=O)(=O)N1 (stereo not drawn) [Example 2] in the records?
< 3.90

Which value of pIC50 has been reported for N#Cc1ccccc1C(CNC(=O)C1=Nc2ccccc2S(=O)(=O)N1)c1ncco1 (stereo not drawn) [Example 218] in the records?
< 3.90

Which value of pIC50 has been reported for O=C(NCC(O)c1ccccc1OC(F)F)C1=Nc2ccc(I)cc2S(=O)(=O)N1 (stereo not drawn) [Example 57] in the records?
4.95

Which value of pIC50 has been reported for Cn1cc(-c2ccc3c(c2)S(=O)(=O)NC(C(=O)NCC(c2ccccc2)c2ncco2)=N3)cn1 (stereo not drawn) [Example 25] in the records?
< 3.90

---

target.or.test.system: MOF-KAT8 (Homo sapiens)
assay.summary: Acetyltransferase biochemical assay (AlphaScreen), KAT8
experimental.conditions: Table 4 (MOF-KAT8); 0.4 μM Acetyl coenzyme A, histone H4, 20 nM enzyme
Would you mind telling me the reported pIC50 of each entry?
API: returns pIC50 as number; meaning -log10 of concentration in mol/L.

Which value of pIC50 has been reported for CNC(=O)c1ccc2c(c1)S(=O)(=O)NC(C(=O)NCC(c1ccccc1)c1ncco1)=N2 (centres unmarked) in the records?
4.13

Which value of pIC50 has been reported for COc1cccc(C(CNC(=O)C2=Nc3ccc(I)cc3S(=O)(=O)N2)c2ncco2)c1 (centres unmarked) in the records?
4.64

Which value of pIC50 has been reported for Cc1ccc(C(CNC(=O)C2=Nc3ccc(Cl)cc3S(=O)(=O)N2)c2ncco2)cc1 (centres unmarked) in the records?
5.43

Which value of pIC50 has been reported for O=C(NCC(c1ccccc1)c1n[nH]c(=O)o1)C1=Nc2ccc(I)cc2S(=O)(=O)N1 (centres unmarked) in the records?
4.15

Which value of pIC50 has been reported for O=C(NCC(c1ccccc1)c1ncco1)C1=Nc2ccc(-c3cn[nH]c3)cc2S(=O)(=O)N1 (centres unmarked) in the records?
4.63

Which value of pIC50 has been reported for `O=C(NCCc1ccccc1O)C1=Nc2ccc(Br)cc2S(=O)(=O)N1` in the records?
4.25

Which value of pIC50 has been reported for O=C(NCC(c1ccccc1)c1nncs1)C1=Nc2ccc(I)cc2S(=O)(=O)N1 (centres unmarked) in the records?
5.47

Which value of pIC50 has been reported for O=C(NCC(c1ccccc1)c1ncco1)C1=Nc2ccc(Br)cc2S(=O)(=O)N1 (single isomer, unassigned) [Example 139] in the records?
4.72

Which value of pIC50 has been reported for `O=C(NCCc1ccccc1-c1n[nH]c(=O)o1)C1=Nc2ccc(I)cc2S(=O)(=O)N1` in the records?
5.29

Which value of pIC50 has been reported for CC(O)c1ccc2c(c1)S(=O)(=O)NC(C(=O)NCC(c1ccccc1)c1ncco1)=N2 (centres unmarked) in the records?
4.39

Which value of pIC50 has been reported for O=C(NCC(c1ncco1)c1ccccc1O)C1=Nc2ccc(I)cc2S(=O)(=O)N1 (centres unmarked) in the records?
5.19

Which value of pIC50 has been reported for CN(CC(c1ccccc1)c1ncco1)C(=O)C1=Nc2ccc(I)cc2S(=O)(=O)N1 (centres unmarked) in the records?
3.99

Which value of pIC50 has been reported for `O=C(NCCc1ccccc1OC(F)(F)F)C1=Nc2ccc(I)cc2S(=O)(=O)N1` in the records?
4.66

Which value of pIC50 has been reported for O=C(NCC(c1ccccc1)c1ncco1)C1=Nc2ccccc2S(=O)(=O)N1 (single isomer, unassigned) [Example 137] in the records?
4.00

Which value of pIC50 has been reported for O=C(NCC(O)c1ccccc1)C1=Nc2ccc(I)cc2S(=O)(=O)N1 (centres unmarked) in the records?
3.94

Which value of pIC50 has been reported for O=C(NCC(c1ccc(F)cc1)c1ncco1)C1=Nc2ccc(I)cc2S(=O)(=O)N1 (centres unmarked) in the records?
4.53

Which value of pIC50 has been reported for CNC(=O)CCOC(=O)C(CNC(=O)C1=Nc2ccc(I)cc2S(=O)(=O)N1)c1ccccc1 (centres unmarked) in the records?
4.44
